Assay: antimalarial activity against Dd2 strain (AID 2302);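 also: 0% = DMSO untreated growth and 100% = chloroquine plus artemisinin killed control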
Details: P. falciparum Dd2 in RBCs, LDH growth readout, 72 h; at 2 µM; stronger effect = higher value
VALUE_TYPE: growth inhibition (%)
Respond numerically; units are % and should not be typed.

Query block: Which growth inhibition is listed for O=C(Nc1ccc(N2CCCN(Cc3cccc(F)c3)CC2)cc1)c1ccccc1 ?
Result block: 95

Query block: Request: O=C(c1ccc(OCCn2ccnc2)cc1)N1CCC(c2ccc(Br)cc2)C1 (stereo not given)
Result block: 99

Query block: Moving on to the next molecule: CCOc1cc(C(=O)NC2CCN(Cc3ccccc3)CC2)ccc1-c1nc2cc(Cl)c(F)cc2[nH]1
Result block: 51

Query block: Field entry: Cc1nn(-c2ccccc2)nc1C(=O)NC1CCN(CCNC(=O)c2ccc(Cl)c(Cl)c2)CC1
Result block: 5

Query block: What do you have for CCCC1(NC[C@@H](O)[C@H](Cc2ccccc2)NC(=O)c2cc(NCC)cc(N3CCCCS3(=O)=O)c2)CCCC1 ?
Result block: 97
